# Assay Procedure: NCI Yeast Anticancer Drug Screen. Data for the bub3 strain (AID 167)
# Details: S. cerevisiae bub3 mutant strain, at 5.0 µM (retest, dose inferred, filed as 0.5), active compounds read high
Compounds without any hit were thinned out: in the full panel of roughly 79,000, 15% have a hit. Where a SMILES comes first, the peptide text is derived from it. [ ]: non-standard residue; d: D form. The star is where a group is joined. mTyr = N[CH](Cc1cccc(O)c1)C(=O)O; Cbz = O=C(OCc1ccccc1)*; OBn = c1ccc(CO*)cc1
Endpoint: growth inhibition (%)
Answers are plain numbers, in %.

// solved cases for growth inhibition follow
QUERY: Recorded growth inhibition of CCOC(=O)c1c(NC(=O)CBr)sc(C)c1C , please.
RESULT: 5

QUERY: Also check CC(=O)Oc1ccccc1C(=O)/C=C/c1ccccc1
RESULT: -1

QUERY: Also check Cc1cc(C)n2nc(N)c(C#N)c2c1C#N
RESULT: -1

QUERY: Also check [O-]/[N+](O)=C\c1ccccn1
RESULT: 1

QUERY: Also check COC(=O)/C=C1/OC(c2ccccc2)=C(C)C1=O
RESULT: 0

QUERY: Also check CCCCCCCCCCNC(=O)C[n+]1cccc(C(=O)NCc2ccccc2)c1
RESULT: 8

QUERY: Also check CCCCOC(c1ccccc1)N1CCCCC1 (centres undefined)
RESULT: -4

QUERY: Also check Oc1cc(Cc2ccccc2)c(Cc2ccccc2)cc1O
RESULT: -23

Items follow; give growth inhibition for each.
1. N#CCN1CCCCCc2ccccc21
2. Cn1c(=S)c2[nH]c(SCc3ccncc3)nc2n(C)c1=O
3. CC(=O)OCc1ccc2c(c1)C(O)NC(=O)O2 (centres undefined)
4. O=C(c1ccccc1)c1ccc2cccc(O)c2n1
5. C[n+]1c(-c2ccc(/C=N/NC(=O)c3ccc(C(=O)N/N=C/c4ccc(-c5cn6ccccc6[n+]5C)cc4)nc3)cc2)cn2ccccc21
6. NCCOB1c2ccccc2Cc2ccccc21
7. COC(=O)[C@]1(C)CCC[C@]2(C)c3ccc(C(C)C)cc3C(=O)C[C@@H]12

RESULT:
1: -14; 2: -9; 3: 0; 4: -21; 5: 24; 6: 1; 7: 6

Items follow; give growth inhibition for each.
1. CCC[CH2][Sn]1([CH2]CCC)[O]CC([CH2][Sn]([c]2ccccc2)([c]2ccccc2)[c]2ccccc2)[O]1 (centres undefined)
2. COC(=O)C(Cc1cccc(O)c1)NC(=O)C(CC(=O)OCc1ccccc1)NC(=O)OCc1ccccc1 (centres undefined) (Cbz-Asp(OBn)-[mTyr]-OMe; configuration not given here)

RESULT:
[97, -10]

Items follow; give growth inhibition for each.
1. O=C(Nc1ccccc1)c1ccccc1O
2. N#CC1Sc2ccccc2N1C(=O)Oc1ccccc1 (centres undefined)
3. CCCCCCCCCCCCCCCC(=O)NCCN(C)C
4. CC(=O)CC(C)=O.CCN(CC)CC[C-]=O.[Pd+2]
5. COC(=O)C1(C)CC2C(C)(CCC3(C)C4=CC=C5C(=CC(=O)C(O)=C5C)C4(C)CCC23C)CC1O (centres undefined)
6. Nc1ncnc2c1cnn2C1CCCCC1
7. NNc1cc(Cl)ccc1Cl

RESULT:
1: -2; 2: 15; 3: -5; 4: -1; 5: 75; 6: -2; 7: 89
